- study-target: mGAT1 (Mus musculus, UniProt P31648)
- Construct: expressed in transfected cells; host or cells: HEK-293
- run-description: competitive MS binding assay with NO711 as unlabeled marker (LC-ESI-MS/MS)
- condition-summary: in the presence of 100 μM inhibitor

# molecule, study-target, remaining NO711 binding mGAT1
data = [
    ("CCC(C(=O)NCc1ccccc1)N(C)CCC=C(c1sccc1C)c1sccc1C (stereo not shown)", "mGAT1 (Mus musculus, UniProt P31648)", "100 μM: 81%"),
    ("CN(CCON=C(c1ccccc1)c1ccccc1)C(CO)C(=O)NCc1ccccc1Cl (stereo not shown) [Compound 59b]", "mGAT1 (Mus musculus, UniProt P31648)", "100 μM: 92%"),
    ("C[C@@H](O)C[C@H](C(=O)NCc1ccc(Cl)cc1)N(C)CCC=C1c2ccccc2CCc2ccccc21 (relative stereo) [2RS,4RS-39b]", "mGAT1 (Mus musculus, UniProt P31648)", "100 μM: 84%"),
    ("CCC(C(=O)NCc1ccccc1)N1CCC(=C(c2sccc2C)c2sccc2C)CC1 (stereo not shown) [Compound 64a]", "mGAT1 (Mus musculus, UniProt P31648)", "100 μM: 81%"),
    ("Cc1ccc(CNC(=O)[C@@H](C[C@@H](C)O)N(C)CCC=C2c3ccccc3CCc3ccccc32)cc1 (relative stereo) [Compound 2RS,4RS-39c]", "mGAT1 (Mus musculus, UniProt P31648)", "100 μM: 69%"),
    ("CN(CCC=C1c2ccccc2C=Cc2ccccc21)C(CO)C(=O)NCc1ccccc1 (stereo not shown) [Compound 55a]", "mGAT1 (Mus musculus, UniProt P31648)", "100 μM: 83%"),
    ("CCC(C(=O)NCc1ccccc1)N(C)CCON=C(c1ccccc1)c1ccccc1 (stereo not shown) [Compound 66a]", "mGAT1 (Mus musculus, UniProt P31648)", "100 μM: 104%"),
    ("C[C@H](O)C[C@H](C(=O)NCc1ccc(Cl)cc1)N(C)CCC=C1c2ccccc2CCc2ccccc21 (relative stereo) [2RS,4SR-39b]", "mGAT1 (Mus musculus, UniProt P31648)", "100 μM: 87%"),
    ("CC(O)CC(C(=O)NCc1ccccc1)N1CCC(=C2c3ccccc3-c3ccccc32)CC1 (stereo not shown) [2RS,4RS-41a]", "mGAT1 (Mus musculus, UniProt P31648)", "100 μM: 92%"),
    ("CN(CCC=C1c2ccccc2CCc2ccccc21)C(CO)C(=O)NCc1ccccc1 (stereo not shown) [Compound 56a]", "mGAT1 (Mus musculus, UniProt P31648)", "100 μM: 68%"),
]
